# Protocol notes: Microsomal stability, rat
# Type: in vitro ADME
# Recorded conditions: rat liver microsomes, 3 μM compound, 37° C.
Rule: Microsomal stability Rat (%), compound remaining after 60 minutes below 40% gives criterion met. Equal to or above 40% gives criterion not met.

> print(dat)
                              sample.smiles              label
1  O=C(Nc1nc2cccc(-c3ccc(OCc4ccccc4)nc3)n2n1)C1CC1      criterion met
2  O=C(Nc1nc2cccc(-c3ccc(OCc4ccccn4)cc3)n2n1)C1CC1  criterion not met
3  N#Cc1ccc(COc2ccc(-c3cccc4nc(NC(=O)C5CC5)nn34)cc2)cn1  criterion not met
4  O=C(Nc1nc2cccc(-c3ccc(NCc4cccnc4)cc3)n2n1)C1CC1      criterion met
5  Cc1ccc(COc2ccc(-c3cccc4nc(NC(=O)C5CC5)nn34)cc2)cn1  criterion not met
6  O=C(Nc1nc2cccc(-c3ccc(OCc4ccccc4)cc3)n2n1)C1CC1  criterion not met
7  COC(=O)c1ccc(COc2ccc(-c3cccc4nc(NC(=O)C5CC5)nn34)cc2)nc1      criterion met
